Data origin, for the record: ChEMBL document CHEMBL3259619

Tested on: Staphylococcus aureus
Test: Bactericidal activity against methicillin-resistant Staphylococcus aureus CBD-635 assessed as bacterial killing
Type: functional
Collected MBC50 values appear next to each entry.

Examples with answers:
- SMILES_STRUCTURE: "CCCCNc1nc(NCCCC)c2ccccc2n1"
  MBC50: "0.036 µM"
- SMILES_STRUCTURE: "CC(C)Nc1nc(NC2CCCCC2)c2ccccc2n1"
  MBC50: "8.8 µM"
- SMILES_STRUCTURE: "CCCCNc1nc(NCc2ccccc2)c2ccccc2n1"
  MBC50: "0.98 µM"

Proceeding to the next compound to report its MBC50.
Challenge: Provide MBC50, system Staphylococcus aureus, entry "Clc1ccc(CNc2nc(NCc3ccc(Cl)cc3)c3ccccc3n2)cc1"
Response given: 7.2 µM

###

Experiment: Cytotoxicity against human A549 cells assessed as cell viability recovery at 370 uM by MTT assay relative to untreated control
Type: cell-based
Conditions: read-out: Activity
ASSAY_METRIC: viability at 370 µM (%)
The reply should contain only the number, in %.

Challenge: Look up and state reported viability at 370 µM for "c1ccc(CNc2nc(NCc3ccccc3)c3ccccc3n2)cc1"
Response given: 83.6

###

System: Staphylococcus aureus
Experiment: Antimicrobial activity against methicillin-resistant Staphylococcus aureus CBD-635 assessed as complete inhibition of bacterial growth after overnight incubation
Assay type: functional
Please note: MIC exactly at 30 µM is false. Only values below 30 µM get true.

Recorded results for 5 compounds are shown here.
- SMILES_STRUCTURE: "c1ccc(Nc2nc(Nc3ccccc3)c3ccccc3n2)cc1"
  ASSIGNED_CATEGORY: "false"
- SMILES_STRUCTURE: "c1ccc(CNc2nc(Nc3ccccc3)c3ccccc3n2)cc1"
  ASSIGNED_CATEGORY: "false"
- SMILES_STRUCTURE: "CC(C)Nc1nc(NCc2ccccc2)c2ccccc2n1"
  ASSIGNED_CATEGORY: "false"
- SMILES_STRUCTURE: "Clc1ccc(CNc2nc(NCc3ccccc3)c3ccccc3n2)cc1"
  ASSIGNED_CATEGORY: "true"
- SMILES_STRUCTURE: "COc1ccc(CNc2nc(NCc3ccc(Cl)cc3)c3ccc(Cl)cc3n2)cc1"
  ASSIGNED_CATEGORY: "false"

We now examine a further compound.
Challenge: Bench note: check whether "CC(C)Nc1nc(NCc2ccccc2)nc2ccccc12" shows MIC below 30 µM
Response given: false

###

Experiment: Lipophilicity, log D of the compound at pH 7.4
Type: physicochemical
Settings: buffer
Below, each entry is listed alongside its reported logD.
Answer as a number with no unit attached.

- SMILES_STRUCTURE: "CC(C)Nc1nc(NC2CCCCC2)c2ccccc2n1"
  logD: 4.69
- SMILES_STRUCTURE: "CCCCNc1nc(NCc2ccccc2)c2ccccc2n1"
  logD: 3.8

Now look at this one.
Challenge: Provide one value: measured logD of "c1ccc(CNc2nc(NCc3ccccc3)c3ccccc3n2)cc1"
Response given: 3.82

###

System: Staphylococcus aureus
Test: Antimicrobial activity against methicillin-resistant Staphylococcus aureus CBD-635 assessed as complete inhibition of bacterial growth after overnight incubation
Type: functional
Readings of MIC for the listed compounds
Give the number; µM is assumed, so skip it.

Here are 3 compounds together with their reported answers.
- SMILES_STRUCTURE: "CC(C)(C)Nc1nc(NCc2ccco2)c2ccccc2n1"
  UNIT_INFO: "µM"
  MEASURED_RESULT: 340
- SMILES_STRUCTURE: "CCCCNc1nc(NCc2ccccc2)c2ccc(Cl)cc2n1"
  UNIT_INFO: "µM"
  MEASURED_RESULT: 0.73
- SMILES_STRUCTURE: "COc1ccc2nc(NC(C)C)nc(NCc3ccco3)c2c1"
  UNIT_INFO: "µM"
  MEASURED_RESULT: 80

Challenge: Report MIC for "Cc1ccc(CNc2nc(NCc3ccccc3)c3ccccc3n2)cc1"
Response given: 28

Challenge: Provide measured MIC value, entry: "c1coc(CNc2nc(NC3CCCC3)nc3ccccc23)c1"
Response given: 160

Challenge: Return MIC (reported value) for this compound: "CC(C)Nc1nc(NC2CCCCC2)c2ccccc2n1"
Response given: 3.5

Challenge: Tell me its MIC given "CCCCNc1nc(NCc2ccccc2)c2ccccc2n1" as the entry.
Response given: 3.3

Challenge: Look up and state reported MIC for "COc1ccc(CNc2nc(NCc3ccc(OC)cc3)c3ccccc3n2)cc1"
Response given: 25

Challenge: // Input: "COc1ccc(CNc2nc(NCc3ccccc3)nc3ccccc23)cc1" . Output its MIC only.
Response given: 68

Challenge: Please report MIC for the following compound: "c1coc(CNc2nc(NC3CCCCC3)nc3ccccc23)c1"
Response given: 78

Challenge: Fill in MIC for record "CC(C)Nc1nc(NCc2ccco2)c2cc(Cl)ccc2n1"
Response given: 32

Challenge: Tell me measured MIC for "Cc1ccc(CNc2nc(NCc3ccccc3)nc3ccccc23)cc1" please.
Response given: 71

Challenge: Kindly indicate its recorded MIC. Item: "CC(C)Nc1nc(NCc2ccco2)c2ccc(Cl)cc2n1"
Response given: 32

Challenge: Report measured MIC; entry is "c1ccc(CNc2nc(NCc3ccco3)c3ccccc3n2)cc1"
Response given: 30

Challenge: Input "Clc1ccc(CNc2nc(NCc3ccc(Cl)cc3)c3ccccc3n2)cc1" , output reported MIC.
Response given: 2.4

Challenge: Return reported MIC. Input compound: "CC(C)Nc1nc(NCc2ccco2)nc2ccccc12"
Response given: 35

Challenge: Give the reported MIC for this compound. "CC(C)Nc1nc(Nc2ccccc2)c2ccccc2n1"
Response given: 36

Challenge: # return recorded MIC for input "CC(C)Nc1nc(NCc2ccco2)c2ccccc2n1"
Response given: 180

Challenge: Please list MIC recorded for the compound "CNc1nc(NCc2ccco2)nc2ccccc12"
Response given: 390

Challenge: For the compound "Cc1cccc2c(NCc3ccco3)nc(NC(C)C)nc12" , give its reported MIC.
Response given: 340

Challenge: Specify reported MIC for the compound shown: "CC(C)Nc1nc(NC2CCCC2)nc2ccccc12"
Response given: 190

###

Tested on: Staphylococcus aureus
Assay: Antimicrobial activity against methicillin-resistant Staphylococcus aureus CBD-635 assessed as complete inhibition of bacterial growth after overnight incubation
Format: functional
Measured log10(MIC) by item
log10 MIC, µM

Solved cases (2 shown):
- SMILES_STRUCTURE: "c1ccc(CNc2nc(NCc3ccccc3)c3ccccc3n2)cc1"
  log10(MIC): 0.46
- SMILES_STRUCTURE: "CCCCNc1nc(Nc2ccccc2)nc2ccccc12"
  log10(MIC): 1.53

# ---- query compound ----
Challenge: Identify the reported log10(MIC) for the following entry. "Clc1ccc2c(NCc3ccccc3)nc(NCc3ccccc3)nc2c1"
Response given: 1.43

###

Assay: Cytotoxicity against human A549 cells assessed as cell viability recovery at 440 uM by MTT assay relative to untreated control
Format: cell-based
Conditions: read-out: Activity
ASSAY_METRIC: viability at 440 µM (%)
Answer in %, number only, no unit symbol.

Challenge: For the molecule "CC(C)Nc1nc(NC2CCCCC2)c2ccccc2n1" , report viability at 440 µM.
Response given: 70.3

###

Experiment: physchem
Settings: pampa, pH 4
ASSAY_METRIC: Papp (×10⁻⁶ cm/s)
Return type: number; implicit unit ×10⁻⁶ cm/s.

Challenge: Answer with reported Papp of CNC(=C[N+](=O)[O-])NCCSCc1ccc(CN(C)C)o1.Cl [RANITIDINE HYDROCHLORIDE]
Response given: 5.2

###

Test: Cytotoxicity against human A549 cells assessed as cell viability recovery at 1.6 to 16 uM by MTT assay relative to untreated control
Type: cell-based
Conditions: read-out: Activity
ASSAY_METRIC: viability at up to 16 µM

Challenge: // fetch viability at up to 16 µM given entry "CCCCNc1nc(NCc2ccccc2)c2ccccc2n1"
Response given: > 100%

###

Experiment: Cytotoxicity against human A549 cells assessed as cell viability recovery up to 367 uM by MTT assay relative to untreated control
Assay type: cell-based
Details: read-out: Activity
ASSAY_METRIC: viability

Challenge: Write down viability measured for item "c1ccc(CNc2nc(NCc3ccccc3)c3ccccc3n2)cc1"
Response given: > 60%

###

The entries below come with measured solubility at 18 h values attached.
Assay: Aqueous solubility of the compound at pH 2 after 18 hrs incubation by HPLC
Format: physicochemical

As a guide, the following entries are already answered.
- SMILES_STRUCTURE: "CCCCNc1nc(NCc2ccccc2)c2ccccc2n1"
  solubility at 18 h: "≥ 30 µM"
- SMILES_STRUCTURE: "CC(C)Nc1nc(NC2CCCCC2)c2ccccc2n1"
  solubility at 18 h: "≥ 30 µM"

Challenge: Provide solubility at 18 h value for the following compound: "c1ccc(CNc2nc(NCc3ccccc3)c3ccccc3n2)cc1"
Response given: ≥ 30 µM
